System: mice
Assay: Biological Example 5: acute toxicity experiment of single oral administration in mice
Format: in vivo
Conditions: Male mice; Day 3; single oral 1000 mg/Kg; Mean ± SD

{"molecule": "COCCN1C(=O)CCC(N2C(=O)c3ccc(O)c(N)c3C2=O)C1=O (stereo not drawn)", "target": "mice", "Daily Body Weight / g": 24.6}
{"molecule": "CCOCCN1C(=O)CCC(N2C(=O)c3cccc(N)c3C2=O)C1=O (stereo not drawn)", "target": "mice", "Daily Body Weight / g": 21.3}
{"molecule": "CNc1cccc2c1C(=O)N(C1CCC(=O)N(CCOC)C1=O)C2=O (stereo not drawn)", "target": "mice", "Daily Body Weight / g": 24.7}
{"molecule": "COCCN1C(=O)CCC(N2C(=O)c3cccc(C)c3C2=O)C1=O (stereo not drawn)", "target": "mice", "Daily Body Weight / g": 24.5}
{"molecule": "CCOCCN1C(=O)CCC(N2C(=O)c3cccc(F)c3C2=O)C1=O (stereo not drawn)", "target": "mice", "Daily Body Weight / g": 25.3}
{"molecule": "C[S+]([O-])CCN1C(=O)CCC(N2C(=O)c3cccc(N)c3C2=O)C1=O (stereo not drawn)", "target": "mice", "Daily Body Weight / g": 24.9}
{"molecule": "COCCCN1C(=O)CCC(N2C(=O)c3ccc(N)cc3C2=O)C1=O (stereo not drawn)", "target": "mice", "Daily Body Weight / g": 24.1}
{"molecule": "COCCN1C(=O)CCC(N2C(=O)c3cccc(O)c3C2=O)C1=O (stereo not drawn)", "target": "mice", "Daily Body Weight / g": 24.5}
{"molecule": "COCCCCN1C(=O)CCC(N2C(=O)c3cccc(N)c3C2=O)C1=O (stereo not drawn)", "target": "mice", "Daily Body Weight / g": 23.5}
{"molecule": "COCCCN1C(=O)CCC(N2C(=O)c3cccc(N)c3C2=O)C1=O (stereo not drawn)", "target": "mice", "Daily Body Weight / g": 25.0}
{"molecule": "COCCN1C(=O)CCC(N2C(=O)c3cccc(F)c3C2=O)C1=O (stereo not drawn)", "target": "mice", "Daily Body Weight / g": 23.6}
{"molecule": "CSCCN1C(=O)CCC(N2C(=O)c3cccc(N)c3C2=O)C1=O (stereo not drawn)", "target": "mice", "Daily Body Weight / g": 25.4}
{"molecule": "Nc1cccc2c1C(=O)N(C1CCC(=O)N(CCO)C1=O)C2=O (stereo not drawn)", "target": "mice", "Daily Body Weight / g": 21.6}
{"molecule": "COCCCN1C(=O)CCC(N2C(=O)c3cccc(F)c3C2=O)C1=O (stereo not drawn)", "target": "mice", "Daily Body Weight / g": 24.6}
{"molecule": "COCCN1C(=O)CCC(N2C(=O)c3ccc(F)c(N)c3C2=O)C1=O (stereo not drawn)", "target": "mice", "Daily Body Weight / g": 24.1}
{"molecule": "COCCN1C(=O)CCC(N2C(=O)c3cccc(NC(C)=O)c3C2=O)C1=O (stereo not drawn)", "target": "mice", "Daily Body Weight / g": 24.9}
{"molecule": "CS(=O)(=O)CCN1C(=O)CCC(N2C(=O)c3cccc(N)c3C2=O)C1=O (stereo not drawn)", "target": "mice", "Daily Body Weight / g": 24.4}
{"molecule": "COCCN1C(=O)CCC(N2C(=O)c3c(N)ccc(O)c3C2=O)C1=O (stereo not drawn)", "target": "mice", "Daily Body Weight / g": 25.5}

----------
System: mice
Assay: Biological Example 5: acute toxicity experiment of single oral administration in mice
Assay type: in vivo
Conditions: Female mice; Day 5; single oral 1000 mg/Kg; Mean ± SD

{"molecule": "CNc1cccc2c1C(=O)N(C1CCC(=O)N(CCOC)C1=O)C2=O (stereo not shown)", "quantity.unit": "g", "Daily Body Weight": 24.4}
{"molecule": "CS(=O)(=O)CCN1C(=O)CCC(N2C(=O)c3cccc(N)c3C2=O)C1=O (stereo not shown)", "quantity.unit": "g", "Daily Body Weight": 23.0}
{"molecule": "COCCCN1C(=O)CCC(N2C(=O)c3ccc(N)cc3C2=O)C1=O (stereo not shown)", "quantity.unit": "g", "Daily Body Weight": 24.8}
{"molecule": "CCOCCN1C(=O)CCC(N2C(=O)c3cccc(N)c3C2=O)C1=O (stereo not shown)", "quantity.unit": "g", "Daily Body Weight": 23.2}

----------
Catalogue of Daily Body Weight readings, one per entry.
Test system: mice
Assay: Biological Example 5: acute toxicity experiment of single oral administration in mice
Format: in vivo
Conditions: Male mice; Day 4; single oral 1000 mg/Kg; Mean ± SD
recorded.endpoint: Daily Body Weight

{"compound": "COCCN1C(=O)CCC(N2C(=O)c3ccc(F)c(N)c3C2=O)C1=O (stereo not shown) [Example 9]", "recorded.endpoint": "Daily Body Weight", "test.result": "25.9 ± 1.1 g"}
{"compound": "CSCCN1C(=O)CCC(N2C(=O)c3cccc(N)c3C2=O)C1=O (stereo not shown) [Example 11]", "recorded.endpoint": "Daily Body Weight", "test.result": "25.4 ± 0.4 g"}
{"compound": "COCCCCN1C(=O)CCC(N2C(=O)c3cccc(N)c3C2=O)C1=O (stereo not shown) [Example 22]", "recorded.endpoint": "Daily Body Weight", "test.result": "25.2 ± 0.5 g"}
{"compound": "CCOCCN1C(=O)CCC(N2C(=O)c3cccc(F)c3C2=O)C1=O (stereo not shown) [Example 20]", "recorded.endpoint": "Daily Body Weight", "test.result": "25.3 ± 1.2 g"}

----------
Catalogue of Daily Body Weight values
Tested on: mice
Test: Biological Example 5: acute toxicity experiment of single oral administration in mice
Format: in vivo
Details: Male mice; Day 2; single oral 1000 mg/Kg; Mean ± SD
recorded.endpoint: Daily Body Weight (g)

{"compound": "COCCN1C(=O)CCC(N2C(=O)c3cccc(C)c3C2=O)C1=O (centres unmarked) [Example 24]", "recorded.endpoint": "Daily Body Weight", "test.result": 22.3}
{"compound": "COCCCCN1C(=O)CCC(N2C(=O)c3cccc(N)c3C2=O)C1=O (centres unmarked) [Example 22]", "recorded.endpoint": "Daily Body Weight", "test.result": 22.9}
{"compound": "COCCN1C(=O)CCC(N2C(=O)c3ccc(O)c(N)c3C2=O)C1=O (centres unmarked) [Example 8]", "recorded.endpoint": "Daily Body Weight", "test.result": 23.1}
{"compound": "Nc1cccc2c1C(=O)N(C1CCC(=O)N(CCO)C1=O)C2=O (centres unmarked) [Example 6]", "recorded.endpoint": "Daily Body Weight", "test.result": 21.5}
{"compound": "CCOCCN1C(=O)CCC(N2C(=O)c3cccc(F)c3C2=O)C1=O (centres unmarked) [Example 20]", "recorded.endpoint": "Daily Body Weight", "test.result": 24.0}

----------
Test system: DNBS-Induced Inflammatory Bowel Disease Models in Rats
Experiment: Biological Example 3: DNBS-induced inflammatory bowel disease models in rats
Format: in vivo, Wistar rats
Settings: 30 mg/Kg i.g. qd × 7; day 7
Recorded Ulcer area of colon, one value per entry.
recorded.endpoint: Ulcer area of colon (cm^2)

{"molecule": "COCCN1C(=O)CCC(N2C(=O)c3ccc(F)cc3C2=O)C1=O (stereo not shown) [Example 21]", "recorded.endpoint": "Ulcer area of colon", "test.result": 0.93}
{"molecule": "COCCN1C(=O)CCC(N2C(=O)c3ccc(N)cc3C2=O)C1=O (stereo not shown) [Example 7]", "recorded.endpoint": "Ulcer area of colon", "test.result": 0.77}
{"molecule": "COCCCCN1C(=O)CCC(N2C(=O)c3cccc(N)c3C2=O)C1=O (stereo not shown) [Example 22]", "recorded.endpoint": "Ulcer area of colon", "test.result": 1.84}

----------
System: mice
Experiment: Biological Example 5: acute toxicity experiment of single oral administration in mice
Format: in vivo
Settings: Female mice; Day 1; single oral 1000 mg/Kg; Mean ± SD

{"compound": "CNc1cccc2c1C(=O)N(C1CCC(=O)N(CCOC)C1=O)C2=O (stereo not drawn)", "target": "mice", "Daily Body Weight, g": 19.2}
{"compound": "COCCN1C(=O)CCC(N2C(=O)c3c(N)ccc(O)c3C2=O)C1=O (stereo not drawn)", "target": "mice", "Daily Body Weight, g": 19.2}
{"compound": "COCCCN1C(=O)CCC(N2C(=O)c3cccc(F)c3C2=O)C1=O (stereo not drawn)", "target": "mice", "Daily Body Weight, g": 18.6}

----------
Some compounds, each annotated with its measured Daily Body Weight.
System: mice
Assay: Biological Example 5: acute toxicity experiment of single oral administration in mice
Type: in vivo
Settings: Male mice; Day 5; single oral 1000 mg/Kg; Mean ± SD

{"compound": "CNc1cccc2c1C(=O)N(C1CCC(=O)N(CCOC)C1=O)C2=O (stereo not drawn)", "Daily Body Weight, g": 26.2}
{"compound": "COCCCCN1C(=O)CCC(N2C(=O)c3cccc(N)c3C2=O)C1=O (stereo not drawn)", "Daily Body Weight, g": 27.2}
{"compound": "C[S+]([O-])CCN1C(=O)CCC(N2C(=O)c3cccc(N)c3C2=O)C1=O (stereo not drawn)", "Daily Body Weight, g": 26.1}
{"compound": "CS(=O)(=O)CCN1C(=O)CCC(N2C(=O)c3cccc(N)c3C2=O)C1=O (stereo not drawn)", "Daily Body Weight, g": 26.5}
{"compound": "COCCCN1C(=O)CCC(N2C(=O)c3cccc(N)c3C2=O)C1=O (stereo not drawn)", "Daily Body Weight, g": 27.3}
{"compound": "CCOCCN1C(=O)CCC(N2C(=O)c3cccc(N)c3C2=O)C1=O (stereo not drawn)", "Daily Body Weight, g": 24.8}
{"compound": "COCCCN1C(=O)CCC(N2C(=O)c3ccc(N)cc3C2=O)C1=O (stereo not drawn)", "Daily Body Weight, g": 28.1}
{"compound": "COCCN1C(=O)CCC(N2C(=O)c3cccc(F)c3C2=O)C1=O (stereo not drawn)", "Daily Body Weight, g": 26.7}
{"compound": "COCCN1C(=O)CCC(N2C(=O)c3cccc(O)c3C2=O)C1=O (stereo not drawn)", "Daily Body Weight, g": 25.4}
{"compound": "COCCN1C(=O)CCC(N2C(=O)c3ccc(O)c(N)c3C2=O)C1=O (stereo not drawn)", "Daily Body Weight, g": 27.2}
{"compound": "COCCN1C(=O)CCC(N2C(=O)c3cccc(C)c3C2=O)C1=O (stereo not drawn)", "Daily Body Weight, g": 27.2}
{"compound": "COCCN1C(=O)CCC(N2C(=O)c3c(N)ccc(O)c3C2=O)C1=O (stereo not drawn)", "Daily Body Weight, g": 26.8}
{"compound": "CSCCN1C(=O)CCC(N2C(=O)c3cccc(N)c3C2=O)C1=O (stereo not drawn)", "Daily Body Weight, g": 27.0}
{"compound": "COCCN1C(=O)CCC(N2C(=O)c3cccc(NC(C)=O)c3C2=O)C1=O (stereo not drawn)", "Daily Body Weight, g": 27.7}
{"compound": "CCOCCN1C(=O)CCC(N2C(=O)c3cccc(F)c3C2=O)C1=O (stereo not drawn)", "Daily Body Weight, g": 26.7}
